The values you see were collected from paper PMC9238401.

Test system: horse erythrocytes
RUN_PARAMETERS: TRIS buffer pH 7.2, 1 h, 37°C, absorbance 540 nm, relative to melittin 100 μM, ± confidence interval (α = 0.05)
Procedure: The toxicity of peptide conjugates to eukaryotic cells was determined as the ability to lyse erythrocytes (Table SB). The hemolytic activity of the compounds was evaluated by determining hemoglobin release from erythrocyte suspensions of horse blood (5% vol/vol) (Oxoid) as previously described ([45]). Blood was centrifuged at 6000g for 5 min, washed three times with TRIS buffer (10 mM TRIS, 150 mM NaCl, pH 7.2) and diluted 10 times. […]
Non-standard residues stand in square brackets, D forms with d. Residues, ends and D or L forms follow the SMILES beside them. *: point of attachment. Butyryl = CCCC(=O)*
Please note: label 1 applies when Percent hemolysis at 375 μM is 10% or greater, and label 0 applies otherwise.

Reference set, count: 4
COMPOUND: CC[C@H](C)[C@H](NC(=O)[C@H](CCCCN)NC(=O)[C@H](CCCCN)NC(=O)[C@@H](Cc1ccccc1)NC(=O)[C@H](CC(C)C)NC(=O)[C@H](CCCCN)NC(=O)[C@@H](N)CCCCN)C(=O)N[C@@H](CC(C)C)C(=O)N[C@@H](CCCCN)C(=O)N[C@@H](Cc1ccc(O)cc1)C(=O)N[C@@H](CC(C)C)C(N)=O [BP143, reference compound]
STUDY_SYSTEM: horse erythrocytes
ASSIGNED_LABEL: label 0
//
COMPOUND: CCCC(=O)NCCCC[C@H](NC(=O)[C@@H](NC(=O)[C@H](CCCCN)NC(=O)[C@H](CCCCN)NC(=O)[C@H](Cc1ccccc1)NC(=O)[C@H](CC(C)C)NC(=O)[C@H](CCCCN)NC(=O)[C@H](CCCCN)NC(C)=O)[C@@H](C)CC)C(=O)N[C@@H](CCCCN)C(=O)N[C@@H](Cc1ccc(O)cc1)C(=O)N[C@@H](CC(C)C)C(N)=O [BP387, reference compound] (Ac-KKLFKKIK(Butyryl)KYL-NH2)
STUDY_SYSTEM: horse erythrocytes
ASSIGNED_LABEL: label 1
//
COMPOUND: CC[C@H](C)[C@H](NC(=O)[C@H](CCCCN)NC(=O)[C@H](CCCCN)NC(=O)[C@H](Cc1ccccc1)NC(=O)[C@H](CC(C)C)NC(=O)[C@H](CCCCN)NC(=O)[C@@H](N)CCCCN)C(=O)N[C@@H](CC(C)C)C(=O)N[C@@H](CCCCN)C(=O)N[C@@H](CCCCN)C(=O)N[C@@H](CC(C)C)C(N)=O [BP16, reference compound]
STUDY_SYSTEM: horse erythrocytes
ASSIGNED_LABEL: label 0
//
COMPOUND: CCCC(=O)NCCCC[C@H](NC(=O)[C@H](CCCCN)NC(=O)[C@H](CC(C)C)NC(=O)[C@@H](NC(=O)[C@H](CCCCN)NC(=O)[C@H](CCCCN)NC(=O)[C@@H](Cc1ccccc1)NC(=O)[C@H](CC(C)C)NC(=O)[C@H](CCCCN)NC(=O)[C@H](CCCCN)NC(C)=O)[C@@H](C)CC)C(=O)N[C@@H](CC(C)C)C(N)=O [BP475, reference compound] (Ac-KKL[dF]KKILKK(Butyryl)L-NH2)
STUDY_SYSTEM: horse erythrocytes
ASSIGNED_LABEL: label 0

-- ask Item CC[C@H](C)[C@H](NC(=O)[C@H](CCCCN)NC(=O)[C@H](CCCCN)NC(=O)[C@H](Cc1ccccc1)NC(=O)[C@H](CC(C)C)NC(=O)[C@H](CCCCN)NC(=O)[C@@H](N)CCCCN)C(=O)N[C@@H](CC(C)C)C(=O)N[C@@H](CCCCN)C(=O)N[C@@H](Cc1ccc(O)cc1)C(=O)N[C@@H](CC(C)C)C(N)=O [BP100, reference compound] with Percent hemolysis at 375 μM of 10% or above?
-- reply label 1
